System: HEK-293T
Experiment: Multiplex assay against HEK293T
Format: toxicity, cell-based
Details: human, 12 h, 1 µM, compound concentration 1 uM, replicate 1
Label rule, in plain words: Population Normal (%) of 90% and up is condition met, under 90% is condition not met.

{"columns": ["COMPOUND", "DISCRETE_LABEL"],
 "data": [
  ["CC(C)(C)c1ccc(CSc2cnn(C(C)(C)C)c(=O)c2Cl)cc1", "condition not met"],
  ["COc1cc2nc(N3CCN(C(=O)c4ccco4)CC3)nc(N)c2cc1OC.Cl [PRAZOSIN HYDROCHLORIDE]", "condition met"],
  ["OCCCNc1cc(-c2ccnc(Nc3cccc(Cl)c3)n2)ccn1", "condition not met"]
]}

###

Reported Population Mitochondria Different-Phenotype (%) by item:
Test system: HEK-293T
Experiment: Multiplex assay against HEK293T
Format: toxicity, cell-based
Details: human, 48 h, 1 µM, compound concentration 1 uM, replicate 2
REPORTED_METRIC: Population Mitochondria Different-Phenotype (%)

{"columns": ["COMPOUND", "MEASURED_TARGET", "MEASURED_RESULT"],
 "data": [
  ["CCc1nn2c(C)cc(C)nc2c1Cc1ccc(-c2nnc(C3CCNCC3)o2)cc1", "HEK-293T", 24],
  ["CSc1nc(NC2CCCC2)c([N+](=O)[O-])c(NC2CCCC2)n1", "HEK-293T", 32],
  ["CC(C)(C)c1ccc(CSc2cnn(C(C)(C)C)c(=O)c2Cl)cc1", "HEK-293T", 21],
  ["N[C@](CC1c2ccccc2Oc2ccccc21)(C(=O)O)[C@H]1C[C@@H]1C(=O)O", "HEK-293T", 17],
  ["Cc1cc(NC(=O)NCCN2CCC(O)(Cc3ccccc3)CC2)c2ccccc2n1", "HEK-293T", 24],
  ["COc1ccc2[nH]c(I)c(CCNC(C)=O)c2c1", "HEK-293T", 22],
  ["O=c1ccc2ccc(OCCCCN3CCN(c4cccc5sccc45)CC3)cc2[nH]1", "HEK-293T", 36],
  ["CCC(=O)OCC(=O)[C@@]1(OC(=O)CC)[C@@H](C)C[C@H]2[C@@H]3CCC4=CC(=O)C=C[C@]4(C)[C@@]3(Cl)[C@@H](O)C[C@@]21C [BECLOMETHASONE DIPROPIONATE]", "HEK-293T", 32]
]}

###

Tested on: U2OS
Test: Multiplex assay against U2OS
Format: toxicity, cell-based
Details: human, 12 h, 10 µM, compound concentration 10 uM, replicate 1
Label rule, in plain words: Population Pyknosed Nuclei (%) of 10% and up is 1 (yes), under 10% is 0 (no).

{"columns": ["COMPOUND", "DISCRETE_LABEL"],
 "data": [
  ["Cc1nn(C)c2nc(NNC(=O)Nc3cc(Cl)nc(Cl)c3)cc(C(C)C)c12", "1 (yes)"],
  ["Cl.Cl.OCCOCCN1CCN(C(c2ccccc2)c2ccc(Cl)cc2)CC1 (centres undefined) [HYDROXYZINE HYDROCHLORIDE]", "1 (yes)"],
  ["CN1CCN(c2ccc(Nc3c4ccccc4nc4ccccc34)cc2)CC1.Cl.Cl.O", "0 (no)"],
  ["Cc1sc2c(c1C)C(c1ccc(Cl)cc1)=N[C@H](CC(=O)OC(C)(C)C)c1nnc(C)n1-2", "1 (yes)"],
  ["COc1cc(Nc2ncc3c(n2)-c2ccc(Cl)cc2C(c2c(F)cccc2OC)=NC3)ccc1C(=O)O [ALISERTIB]", "1 (yes)"],
  ["COc1cc2nc(N3CCN(C(=O)COc4c(OC)cccc4C(C)C)CC3)nc(N)c2cc1OC.Cl.Cl", "1 (yes)"],
  ["CCCCCCNC(=O)Nc1ccc(S(=O)(=O)Nc2ccc(CCNC[C@H](O)COc3ccc(O)cc3)cc2)cc1 [L-755507]", "0 (no)"],
  ["Nc1nc(-c2ccco2)c2cnn(Cc3ccccc3F)c2n1", "1 (yes)"],
  ["O=C(Nc1cc(-c2ccccc2)nn1-c1ccccc1F)c1ccc([N+](=O)[O-])cc1", "0 (no)"]
]}
